B1: ZC3H15 (parent)
chain: ENLFTGEDLDELEEELNTLDLEE

Variants of: B1
Assay: protein stability index of a GFP-peptide fusion (GPS, HEK-293T) (PSI 1-6); higher = more stable;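 also: lentivirally expressed fusions sorted by FACS into six bins by GFP to DsRed ratio, PSI derived from sequencing read proportions per bin multiplied by bin number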
Conditions: c terminus: native
ENDPOINT: protein stability index
Number, no unit, nothing else.

G6V | 4.28
E14G | 3.47
E22G | 5.33

-- ask Name the reported protein stability index value associated with the variant E11K
-- reply 4.83

-- ask Please answer likewise for E23I
-- reply 5.81

-- ask Please answer likewise for D8N
-- reply 3.93

-- ask Please answer likewise for F4N
-- reply 4.74

-- ask Please answer likewise for T5G
-- reply 4.5

-- ask Please answer likewise for L21Q
-- reply 4.88

-- ask Please answer likewise for L21C
-- reply 2.13
